Assignment: determine reported pIC50 for the given compounds.
System: T47D
Experiment Description: Microculture tetrazolium assay
Type: cell-based
Assay Setup: Homo sapiens, read-out: IC50
Bear in mind: pIC50 is minus log10 of a mol/L concentration; give just that figure.

## Input # get_value(readout='pIC50', item= C[C@@H]1O[C@@H](O[C@@H]2O[C@@H](C#N)CC3=C2C(=O)c2cc4ccccc4c(O)c2C3=O)C[C@H](NC(=O)C(F)(F)F)[C@@H]1O )
## Output 6.41

## Input Could you share which pIC50 value was measured for CC(=O)[C@H]1CC2=C(C(=O)c3cc4ccccc4c(O)c3C2=O)[C@H](O[C@H]2C[C@H](O)[C@H](O)[C@H](C)O2)O1 ?
## Output 5.42

## Input Please look up its pIC50: CC(=O)[C@H]1CC2=C(C(=O)c3cc4ccccc4c(O)c3C2=O)[C@H](O[C@@H]2O[C@@H](C)[C@@H](O)[C@@H](NC(=O)C(F)(F)F)C2I)O1 (stereo partly drawn)
## Output 6.06

###

Would you mind telling me the reported VLB/OV3 of each entry?
Tested on: SKVLB
Experiment Description: Microculture tetrazolium assay
Assay type: cell-based
Assay Setup: IC50 ratio SKVLB/SKOV3
Where a name gives a salt, the structure may show the parent alone.
Form: value (number only, do not type unit).

## Input // query VLB/OV3 value for entry CC(=O)O[C@@H]1[C@H](C)O[C@@H](O[C@H]2O[C@H](C(C)=O)CC3=C2C(=O)c2cc4ccccc4c(O)c2C3=O)C[C@@H]1OC(C)=O
## Output 1.38

## Input Which VLB/OV3 is reported for this compound? COC(=O)[C@@H](N)COC1OC(C(C)=O)CC2=C1C(=O)c1cc3ccccc3c(O)c1C2=O (mixture of isomers) [BCH-1657, hydrochloride salt]
## Output 7.42

## Input So what's the measured VLB/OV3 for this one? C[C@@H]1O[C@@H](O[C@@H]2O[C@@H](S(=O)(=O)c3ccccc3)CC3=C2C(=O)c2cc4ccccc4c(O)c2C3=O)C[C@H](NC(=O)C(F)(F)F)[C@@H]1O
## Output 1.90

###

Test system: T47D
Experiment Description: Microculture tetrazolium assay
Format: cell-based
Assay Setup: Homo sapiens, read-out: IC50
Metric: log10(IC50) (log10 of the value in µM)
Hi team, quick reminder: these entries are log10 of IC50 (µM).

## Input Endpoint output: log10(IC50) of CC1(C2CC3=C(CO2)C(=O)c2cc4ccccc4c(O)c2C3=O)OCCCO1 (stereo not drawn) [BCH-1109] . Value?
## Output 1.67

## Input For the compound CC(=O)[C@@H]1Cc2c(O)c3c(c(O)c2[C@@H](O[C@@H]2O[C@@H](C)[C@@H](O)[C@@H](NC(=O)C(F)(F)F)C2I)O1)C(=O)c1ccccc1C3=O (stereo partly drawn) [BCH-2063] , what log10(IC50) is on record?
## Output -0.84

## Input What measured log10(IC50) goes with COC[C@@H]1CC2=C(C(=O)c3cc4ccccc4c(O)c3C2=O)[C@@H](O[C@H]2C[C@H](NC(=O)C(F)(F)F)[C@H](O)[C@H](C)O2)O1 [BCH-1694] ?
## Output 0.65

## Input Quick check: log10(IC50) of CO[C@H]1S[C@H](CO)CC2=C1C(=O)c1cc3ccccc3c(O)c1C2=O (relative stereo) [BCH-725] ?
## Output 0.66

## Input Quick one: log10(IC50) for COC(=O)[C@H]1CC2=C(C(=O)c3c(cc4ccccc4c3O)C2=O)[C@H](O[C@H]2C[C@H](NC(=O)C(F)(F)F)[C@H](O)[C@H](C)O2)O1 (mixture of isomers) [BCH-692] ?
## Output 1.85

## Input Requested read-out: log10(IC50). Entry: C[C@@H]1O[C@@H](O[C@@H]2O[C@@H]([C@H](O)CO)CC3=C2C(=O)c2cc4ccccc4c(O)c2C3=O)C[C@H](NC(=O)C(F)(F)F)[C@@H]1O [BCH-1997]
## Output 0.33

###

Tested on: BE-1
Experiment Description: Soft agar colony formation disk diffusion assay
Type: cell-based, human
Assay Setup: 10 μg/DISK
Excerpt: A more elaborate version of this fundamental assay, the soft agar colony formation disk diffusion assay was used. This assay defines the relative activity of one particular drug versus a tumoral cell line type. The effect of the test drug against tumoral cells could be measured by its inhibitory capacity against colony formation after the delivery of the compound, in different concentrations on an filter disk(4). […]
Exercise: for every item that follows, state its recorded zone of inhibition.
Numbers only; they are read as Zone Units.

## Input For the compound shown here, COC(=O)[C@H]1CC2=C(C(=O)c3c(cc4ccccc4c3O)C2=O)[C@H](O[C@H]2C[C@H](NC(=O)C(F)(F)F)[C@H](O)[C@H](C)O2)O1 (mixture of isomers) [BCH-692] , give the reported zone of inhibition.
## Output 0

## Input Looking for the measured zone of inhibition of CCOC(=O)[C@@H]1CC2=C(C(=O)c3cc4ccccc4c(OC(C)=O)c3C2=O)[C@@H](O)O1 (mixture of isomers) [BCH-660] , can you help?
## Output 45.7

## Input Reported zone of inhibition for CCOC(=O)[C@@H]1CC2=C(C(=O)c3c(c(O)c4ccccc4c3OC(C)=O)C2=O)[C@@H](O)O1 (mixture of isomers) [BCH-658] : what is it?
## Output 0

## Input Requested read-out: zone of inhibition. Entry: CCOC(=O)C1CC2=C(CO1)C(=O)c1c(cc3ccccc3c1O)C2=O (stereo not shown) [BCH-651]
## Output 0

## Input Request the reported zone of inhibition associated with CCOC(=O)C1CC2=C(CO1)C(=O)c1c(c(O)c3ccccc3c1OC(C)=O)C2=O (stereo not shown) [BCH-654]
## Output 24.4

## Input For COC(=O)[C@H]1CC2=C(C(=O)c3c(c(OC)c4ccccc4c3O)C2=O)[C@H](O[C@H]2C[C@H](NC(=O)C(F)(F)F)[C@H](O)[C@H](C)O2)O1 (mixture of isomers) [BCH-675] , what is its reported zone of inhibition?
## Output 0

## Input For the compound COC(=O)[C@@H]1CC2=C(C(=O)c3c(cc4ccccc4c3O)C2=O)[C@@H](O[C@H]2C[C@H](NC(=O)C(F)(F)F)[C@H](O)[C@H](C)O2)O1 [BCH-691] , what zone of inhibition is on record?
## Output 55.0

###

So I've got a bunch of compounds here, and I need their zone of inhibition values.
Test system: MCF7/ADR
Experiment Description: Soft agar colony formation disk diffusion assay
Format: cell-based, human
Assay Setup: 100 μg/DISK
Please respond with the number in Zone Units and leave the unit unwritten.

## Input # lookup: zone of inhibition of CC(=O)Oc1c2c(c(O)c3ccccc13)C(=O)C1=C(C2=O)C(O)OC(C(C)=O)C1 (stereo not drawn)
## Output 323.0

## Input Need zone of inhibition, item COCOCC(=O)C1CC2=C(CO1)C(=O)c1c(cc3ccccc3c1O)C2=O (stereo not drawn)
## Output 0

## Input Item under review: CCOC(=O)[C@@H]1CC2=C(C(=O)c3c(c(O)c4ccccc4c3OC(C)=O)C2=O)[C@@H](O)O1 (mixture of isomers) . Reported zone of inhibition?
## Output 0

## Input For the compound COC(=O)[C@@H]1CC2=C(C(=O)c3c(c(OC)c4ccccc4c3O)C2=O)[C@@H](O[C@H]2C[C@H](NC(=O)C(F)(F)F)[C@H](O)[C@H](C)O2)O1 (mixture of isomers) , what zone of inhibition is on record?
## Output 339.6

## Input Could you tell me which zone of inhibition is on file for COC(=O)[C@H]1CC2=C(C(=O)c3cc4ccccc4c(O)c3C2=O)[C@H](O[C@H]2C[C@H](NC(=O)C(F)(F)F)[C@H](O)[C@H](C)O2)O1 ?
## Output 183.0

## Input What does the data say about its zone of inhibition? Entry: COC(=O)[C@H]1CC2=C(C(=O)c3c(c(OC)c4ccccc4c3O)C2=O)[C@H](O[C@H]2C[C@H](NC(=O)C(F)(F)F)[C@H](O)[C@H](C)O2)O1 (mixture of isomers)
## Output 26.3

###

System: solid tumors
Experiment Description: NCI assay, mean potency in solid tumors
Assay Setup: solid tumors; 2880 min
Metric: Average LOG10 LC50, Mean Potency in solid tumors (log molar)
Respond with the bare value in log molar.

## Input Given the entry COc1cccc2c1C(=O)c1c(O)c3c(c(O)c1C2=O)C[C@@](O)(C(=O)CO)C[C@@H]3O[C@H]1C[C@H](N)[C@H](O)[C@H](C)O1 [ADR, reference compound] , report its measured Average LOG10 LC50, Mean Potency in solid tumors.
## Output -5.07

## Input What value of measured Average LOG10 LC50, Mean Potency in solid tumors is listed for COC(=O)C1CC2=C(C(=O)c3c(cc4ccccc4c3O)C2=O)C(O[C@H]2C[C@H](NC(=O)C(F)(F)F)[C@H](O)[C@H](C)O2)O1 (mixture of isomers) [BCH-242] ?
## Output -5.32

## Input What value of Average LOG10 LC50, Mean Potency in solid tumors has been reported for the following compound? COC(=O)[C@@H]1CC2=C(C(=O)c3c(c(OC)c4ccccc4c3O)C2=O)[C@@H](O[C@H]2C[C@H](NC(=O)C(F)(F)F)[C@H](O)[C@H](C)O2)O1 (mixture of isomers) [BCH-674]
## Output -4.09

## Input Query (compound): COc1cccc2c1C(=O)c1c(O)c3c(c(O)c1C2=O)C[C@@](O)(C(C)=O)C[C@@H]3O[C@H]1C[C@H](N)[C@H](O)[C@H](C)O1 [DNM, reference compound] ; field requested: Average LOG10 LC50, Mean Potency in solid tumors
## Output -5.11

Origin of values: patent US5593970A
